Examples of sequences with documented recombinant UMI read abundance (log10) follow.
experiment: recombinant UMI read abundance after kanamycin selection (control-corrected) (log10(CPM+1)); higher = more efficient recombination; extreme values may be limits of the assay; sequences stand for … in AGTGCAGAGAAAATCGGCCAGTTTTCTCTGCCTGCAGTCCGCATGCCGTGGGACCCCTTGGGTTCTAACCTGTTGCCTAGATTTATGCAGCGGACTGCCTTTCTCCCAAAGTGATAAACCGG…AGGTTGGTTTCACT; site = the 11-nt donor;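 further: IS621 bridge recombinase in Escherichia coli cells against a fixed T5 target plasmid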

{"residue string": "CAAGCAGCATGGACCGGTTTTCCCGGTAATCCGTATTTGCA (site CAAGCAGCTCG)", "recombinant UMI read abundance (log10)": 1.43}
{"residue string": "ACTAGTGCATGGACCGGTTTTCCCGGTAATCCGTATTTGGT (site ACTCGTGCTAC)", "recombinant UMI read abundance (log10)": 0.265}
{"residue string": "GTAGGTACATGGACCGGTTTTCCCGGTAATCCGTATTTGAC (site GTAGGTACTCT)", "recombinant UMI read abundance (log10)": 0.304}
{"residue string": "GCTATTGCATGGACCGGTTTTCCCGGTAATCCGTATTTGCC (site GCTATTGCTGG)", "recombinant UMI read abundance (log10)": 0.891}
{"residue string": "ACGGTATCATGGACCGGTTTTCCCGGTAATCCGTATTTGTA (site ACGGTATCTTA)", "recombinant UMI read abundance (log10)": 3.09}
